- tgt: Thymidine phosphorylase (Escherichia coli K-12) (UniProt P07650)
- Sequence (P07650 whole entry, looked up): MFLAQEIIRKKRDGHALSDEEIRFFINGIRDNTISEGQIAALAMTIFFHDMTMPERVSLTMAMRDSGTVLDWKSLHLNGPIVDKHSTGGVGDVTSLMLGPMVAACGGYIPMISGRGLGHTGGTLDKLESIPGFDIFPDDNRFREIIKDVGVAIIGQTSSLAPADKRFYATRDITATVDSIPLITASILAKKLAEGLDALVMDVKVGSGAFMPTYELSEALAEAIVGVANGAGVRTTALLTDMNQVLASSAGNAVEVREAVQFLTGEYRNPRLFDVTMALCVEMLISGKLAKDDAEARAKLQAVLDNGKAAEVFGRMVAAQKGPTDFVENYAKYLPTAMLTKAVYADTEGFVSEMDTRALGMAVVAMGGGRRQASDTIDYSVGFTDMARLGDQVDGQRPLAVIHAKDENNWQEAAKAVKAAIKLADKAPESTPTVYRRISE
- assay-overview: Activity of 10 U/mL Escherichia coli thymidine phosphorylase assessed as drug phosphorylation after 1 week
measurement-name: Activity (%)

| chemical-structure | measurement-name | reported-result |
| --- | --- | --- |
| Cc1cnc(=O)n([C@H]2C[C@H](O)[C@@H](CO)O2)c1 | Activity | 0 |
| Cc1cn([C@@H]2C[C@H](O)[C@@H](CO)O2)c(=O)[nH]c1=O | Activity | 0 |
| Nc1ccn([C@H]2C[C@H](O)[C@@H](CO)O2)c(=O)n1 | Activity | 0 |
| Cc1nn([C@H]2C[C@H](O)[C@@H](CO)O2)c(=O)[nH]c1=O | Activity | 7.9 |

---

- tgt: Thymidine phosphorylase (Escherichia coli K-12) (UniProt P07650)
- assay-overview: Activity of Escherichia coli thymidine phosphorylase assessed as drug phosphorylation after 2 hrs
- Parameters: concentration or dose not given beside the values
I'd appreciate it if you marked entries fulfilled when Activity is lower than 70% and not fulfilled when it is not.

| compound | tgt | qualitative-label |
| --- | --- | --- |
| O=c1ccn([C@@H]2O[C@H](CO)[C@@H](O)[C@H]2O)c(=O)[nH]1 | Thymidine phosphorylase (Escherichia coli K-12) (UniProt P07650) | not fulfilled |
| Cc1cn([C@H]2C[C@H](O)[C@@H](CN=[N+]=[N-])O2)c(=O)[nH]c1=O | Thymidine phosphorylase (Escherichia coli K-12) (UniProt P07650) | fulfilled |
| O=c1ccn([C@H]2C[C@H](O)[C@@H](CO)O2)c(=O)[nH]1 | Thymidine phosphorylase (Escherichia coli K-12) (UniProt P07650) | not fulfilled |
| Cc1cn([C@H]2CC(O)[C@@H](CO)O2)c(=O)[nH]c1=O (single isomer, unassigned) | Thymidine phosphorylase (Escherichia coli K-12) (UniProt P07650) | fulfilled |
| Cc1cn([C@H]2C[C@H](O)[C@@H](CO)O2)c(=O)[nH]c1=O | Thymidine phosphorylase (Escherichia coli K-12) (UniProt P07650) | not fulfilled |
| Cc1cn([C@H]2C[C@H](N)[C@@H](CO)O2)c(=O)[nH]c1=O | Thymidine phosphorylase (Escherichia coli K-12) (UniProt P07650) | fulfilled |
| Cc1cn([C@H]2C[C@H](O)[C@@H](CS)O2)c(=O)[nH]c1=O | Thymidine phosphorylase (Escherichia coli K-12) (UniProt P07650) | not fulfilled |

---

- tgt: Thymidine phosphorylase (Escherichia coli K-12)
- assay-overview: Activity of 10 U/mL Escherichia coli thymidine phosphorylase assessed as drug phosphorylation after 24 hrs
Activity values for the compounds below.
measurement-name: Activity (%)

| chemical-structure | measurement-name | reported-result |
| --- | --- | --- |
| Cc1cn([C@@H]2C[C@H](O)[C@@H](CO)S2)c(=O)[nH]c1=O | Activity | 0 |
| Cc1cnc(=O)n([C@H]2C[C@H](O)[C@@H](CO)O2)c1 | Activity | 0 |
| Cc1cn([C@@H]2C[C@H](O)[C@@H](CO)O2)c(=O)[nH]c1=O | Activity | 0 |
| Cc1cn(COC(CO)CO)c(=O)[nH]c1=O | Activity | 0 |
| Cc1cn([C@H]2C[C@H](O)C[C@@H](CO)O2)c(=O)[nH]c1=O | Activity | 0 |
| Cc1cn([C@H]2C[C@H](O)[C@@H](CO)S2)c(=O)[nH]c1=O | Activity | 3.8 |
| Cc1nn([C@H]2C[C@H](O)[C@@H](CO)O2)c(=O)[nH]c1=O | Activity | 5.4 |
| Nc1ccn([C@H]2C[C@H](O)[C@@H](CO)O2)c(=O)n1 | Activity | 0 |
